- procedure-text: physchem
- stated-conditions: water, aqueous solubility
parameter-measured: solubility

Record request: solubility value, item Cc1ccccc1-n1nnc(C(=O)Nc2ccc3cc(CN4CCNCC4)ccc3n2)c1C [YA6060]
> 78 mg/mL

I am curious: what solubility value has been reported for Cc1c(C(=O)Nc2ccc3ccccc3n2)cnn1-c1ccccc1Br [YW2065] ?
< 0.01 mg/mL

====

- Test system: Wnt/β-Catenin signaling pathway
- procedure-text: Wnt signaling luciferase (TOPflash) reporter gene assay
- Assay type: cell-based
- stated-conditions: luciferase reporter gene assay; mean of three independent experiments; read-out: IC50 (nM) to inhibit the Wnt signaling activity
I'd appreciate it if you could supply IC50 values for the items below.
Number in nM, nothing else.

Entry Cc1c(C(=O)Nc2nc3ccccc3s2)cnn1-c1ccccc1Br : reported IC50 = ?
5.8

Would you kindly share the measured IC50 for CCc1c(C(=O)Nc2nc3ccccc3s2)nnn1-c1ccccc1F ?
0.76

Which IC50 value belongs to CC(C)(C)c1c(C(=O)Nc2nc3ccccc3s2)nnn1-c1ccccc1F ?
251

Item Cc1c(C(=O)Nc2nc3ccccc3s2)cnn1-c1ccccc1Cl has what recorded IC50?
0.4

Please report the recorded IC50 for Cc1ccccc1-n1ncc(C(=O)Nc2nc3ccccc3s2)c1C .
1.4

====

- Test system: Wnt/β-Catenin signaling pathway
- procedure-text: Wnt signaling luciferase (TOPflash) reporter gene assay
- Format: cell-based
- stated-conditions: luciferase reporter gene assay; mean of three independent experiments; read-out: IC50 (nM) to inhibit the Wnt signaling activity
parameter-measured: IC50 (nM)
I only need the number, in nM, no unit after it.

I have this molecule here, O=C(Nc1nc2ccc(F)cc2s1)c1nnn(-c2ccccc2F)c1C(F)(F)F [YA6175] , and I need its recorded IC50.
17

Need IC50, item Cc1ccccc1-n1nnc(C(=O)Nc2ccc3cc(B4OC(C)(C)C(C)(C)O4)ccc3n2)c1C [YA6063]
148

# get_value(readout='IC50', item= Cc1ccc2nc(NC(=O)c3nnn(-c4ccccc4C)c3C)sc2c1 [YA4069] )
15

Would you kindly share the measured IC50 for Cc1c(C(=O)Nc2nc3ccccc3s2)nnn1-c1ccccc1Br [YA4003] ?
1.8

====

- Tested on: Wnt/β-Catenin signaling pathway
- procedure-text: Wnt signaling luciferase (TOPflash) reporter gene assay
- Type: cell-based
- stated-conditions: luciferase reporter gene assay; mean of three independent experiments; read-out: IC50 (nM) to inhibit the Wnt signaling activity
Record form. Attribute: IC50. Fill in for each entry.
Write the value in nM as a bare number.

Kindly state the measured IC50 obtained for CCc1ccccc1-n1ncc(C(=O)Nc2nc3ccccc3s2)c1C [YA4009] with Wnt/β-Catenin signaling pathway.
6.7

Fill in the recorded IC50 for this compound, with Wnt/β-Catenin signaling pathway as test system: Cc1cccc(F)c1-n1nnc(C(=O)Nc2nc3ccccc3s2)c1C [YA1042]
3.3

What IC50 appears in the records for this compound with Wnt/β-Catenin signaling pathway? CC(C)c1c(C(=O)Nc2nc3ccc(F)cc3s2)nnn1-c1ccccc1F [YA6172]
7.6

Requested read-out IC50, target or system Wnt/β-Catenin signaling pathway, entry Cc1cccc(-n2nnc(C(=O)Nc3nc4ccccc4s3)c2C)c1C [YA4037]
18

Item: Cc1cccc(Br)c1-n1nnc(C(=O)Nc2nc3ccccc3s2)c1C [YA1064] Test system: Wnt/β-Catenin signaling pathway Read-out: IC50 Value: ?
126

What value of IC50 on Wnt/β-Catenin signaling pathway does Cc1c(C(=O)Nc2nc3ccccc3s2)nnn1-c1ccccc1Cl [YA6027] have?
0.8

# value lookup — system Wnt/β-Catenin signaling pathway, readout IC50, item Cc1ccccc1-n1nnc(C(=O)Nc2ccc3cc(CN4CCNCC4)ccc3n2)c1C [YA10951]
4.3

Could you share what IC50 was measured for Cc1cccc(Cl)c1-n1nnc(C(=O)Nc2nc3ccccc3s2)c1C [YA1068] , tested on Wnt/β-Catenin signaling pathway?
35

====

- procedure-text: Pharmacokinetic (PK) studies, oral dose
- stated-conditions: C57/BL6, mouse, blood, po, 5 mg/kg
parameter-measured: Tmax (h)
Kindly answer with a numeric value in h, unit omitted.

Given the molecule Cc1ccccc1-n1nnc(C(=O)Nc2ccc3cc(CN4CCNCC4)ccc3n2)c1C , what is its reported Tmax?
1.6

====

- procedure-text: Pharmacokinetic (PK) studies, oral dose
- stated-conditions: C57/BL6, mouse, blood, po, 5 mg/kg
- Description: The ADMET and PK properties of YA6060 was determined. PK/Tox. The four selected compounds from in vitro evaluation above are subjected to PK and toxicity assessment in C57/BL6 mice. […] Compound concentrations is determined by LC/MS/MS. PK analysis is carried out on Phoenix Winnolin using non-compartmental analysis and compartment models. Compound accumulation in major tissues, including liver, kidney, heart, brain and intestine, are quantified. […]
parameter-measured: bioavailability

bioavailability for Cc1ccccc1-n1nnc(C(=O)Nc2ccc3cc(CN4CCNCC4)ccc3n2)c1C [YA6060] ?
75%

====

- Tested on: HEK293 cells
- procedure-text: Cytotoxicity (CC50) during the luciferase gene reporter assay
- Assay type: cell-based
- stated-conditions: short treatment duration of the luciferase gene reporter assay
parameter-measured: CC50

Which value of CC50 has been reported for Cc1ccccc1-n1nnc(C(=O)Nc2ccc3cc(CN4CCNCC4)ccc3n2)c1C [YA10951] in the records?
> 92 µM

====

- procedure-text: Toxicity evaluation in mice (oral gavage)
- Assay type: in vivo
- stated-conditions: C57BL/6, mouse, in vivo, oral, 500 mg/kg; mice, single dose
parameter-measured: MTD at 21 days

# query: MTD at 21 days of entry Cc1ccccc1-n1nnc(C(=O)Nc2ccc3cc(CN4CCNCC4)ccc3n2)c1C
> 500 mg/kg

====

- Tested on: Wnt signaling in SW620 cells
- procedure-text: Luciferase gene reporter (TOPflash) assay in SW620 cells
- Assay type: cell-based
- stated-conditions: Homo sapiens, SW-620, read-out: IC50, inhibition of Wnt signaling
parameter-measured: IC50 (nM)
Hi! Could you send only the number? It should be in nM, unit omitted.

Quick one: IC50 of Cc1c(C(=O)Nc2ccc3ccccc3n2)cnn1-c1ccccc1Br ?
0.19

====

- procedure-text: Pharmacokinetic (PK) studies, oral dose
- stated-conditions: C57/BL6, mouse, blood, po, 5 mg/kg
parameter-measured: half-life (min)
Value expressed in min; do not type the unit.

What value of half-life has been recorded for this entry: Cc1ccccc1-n1nnc(C(=O)Nc2ccc3cc(CN4CCNCC4)ccc3n2)c1C [YA6060]
160

====

- Test system: HT29 cells
- procedure-text: Viability of HT29 cells
- Type: cell-based
- stated-conditions: Homo sapiens, HT-29, read-out: IC50, cell viability
parameter-measured: IC50 (µM)
Give just the number in µM; leave the unit off.

Find the recorded IC50 belonging to Cc1c(C(=O)Nc2ccc3ccccc3n2)cnn1-c1ccccc1Br and report it.
17

Would you kindly share the measured IC50 for Cc1ccccc1-n1nnc(C(=O)Nc2ccc3cc(CN4CCNCC4)ccc3n2)c1C ?
8.6

====

Assignment: determine reported IC50 for the given compounds.
- System: Wnt/β-Catenin signaling pathway
- procedure-text: Wnt signaling luciferase (TOPflash) reporter gene assay
- Assay type: cell-based
- stated-conditions: luciferase reporter gene assay; mean of three independent experiments; read-out: IC50 (nM) to inhibit the Wnt signaling activity
- Source text: A dual-luciferase gene reporter assay was used to test inhibitory activities of new compounds on Wnt signaling. […] Therefore, the effects of new compounds on AMPK was examined. […]

What measured IC50 is associated with Cc1ccccc1-n1nnc(C(=O)Nc2ncc3ccccc3n2)c1C [YA6061] on Wnt/β-Catenin signaling pathway?
> 1000 nM

Give recorded IC50 with Wnt/β-Catenin signaling pathway for the following compound: Cc1ccccc1-n1nnc(C(=O)Nc2cc(CN3CCN(C(=O)OC(C)(C)C)CC3)c3ccccc3n2)c1C [YA6159]
> 1000 nM

Test system Wnt/β-Catenin signaling pathway; read-out IC50; what value for Cc1ccccc1-n1nnc(C(=O)Nc2cccc3ncccc23)c1C [YA61693] ?
> 1000 nM

Requested read-out IC50, target or system Wnt/β-Catenin signaling pathway, entry Cc1c(C(=O)Nc2nc3ccccc3s2)nnn1-c1ccccc1F [YA4029]
0.46 nM

Record lookup: for Wnt/β-Catenin signaling pathway, what IC50 belongs to Cc1c(C(=O)Nc2nc3ccccc3s2)nnn1-c1cccc(Br)c1 [YA1050] ?
> 1000 nM

====

- Tested on: Wnt/β-Catenin signaling pathway
- procedure-text: Wnt signaling luciferase (TOPflash) reporter gene assay
- Type: cell-based
- stated-conditions: luciferase reporter gene assay; mean of three independent experiments; read-out: IC50 (nM) to inhibit the Wnt signaling activity
Kindly supply the reported IC50 values for the records listed here.
Hi! Could you send only the number? It should be in nM, unit omitted.

Data request, read-out IC50, for O=C(Nc1nc2ccccc2s1)c1nnn(-c2ccccc2F)c1C(F)(F)F
3.3

So what does the record say about IC50 for Cc1ccccc1-n1nnc(C(=O)Nc2nc3ccc(Cl)cc3s2)c1C ?
67

GET /values?readout=IC50&item= Cc1c(C(=O)Nc2nc3ccccc3s2)cnn1-c1ccccc1
8.2

Data request, read-out IC50, for Cc1c(C(=O)Nc2nc3ccccc3s2)nnn1-c1cc(F)ccc1F
4.7

Given the entry Cc1c(C(=O)Nc2nc3ccccc3s2)cnn1-c1cccc(Cl)c1F , report its measured IC50.
9.8

So what's the measured IC50 for this one? Cc1c(C(=O)Nc2cnc3ccccc3n2)nnn1-c1ccccc1C#N
6
